TARGET DESC: MurC (UniProt C4ZRI6)
Sequence (C4ZRI6 whole entry, looked up): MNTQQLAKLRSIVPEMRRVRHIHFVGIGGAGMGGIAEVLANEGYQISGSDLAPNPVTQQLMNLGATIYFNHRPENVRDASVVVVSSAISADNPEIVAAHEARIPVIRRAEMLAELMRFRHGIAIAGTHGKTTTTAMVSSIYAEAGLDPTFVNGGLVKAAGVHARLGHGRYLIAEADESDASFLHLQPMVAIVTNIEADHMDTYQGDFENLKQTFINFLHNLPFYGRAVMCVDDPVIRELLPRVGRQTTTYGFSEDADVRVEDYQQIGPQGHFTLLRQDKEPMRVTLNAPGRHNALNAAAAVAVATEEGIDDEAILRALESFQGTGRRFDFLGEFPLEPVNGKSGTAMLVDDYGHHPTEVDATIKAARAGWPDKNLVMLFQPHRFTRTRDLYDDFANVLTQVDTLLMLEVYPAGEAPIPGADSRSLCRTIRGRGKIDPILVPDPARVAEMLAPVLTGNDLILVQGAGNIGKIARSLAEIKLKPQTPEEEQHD
EXPERIMENT SUMMARY: relative enzymatic activity vs untreated control (fraction); higher = less inhibition
TEST CONTEXT: 100 µM; incubation time: 2 h at 37 C
Given measured relative enzymatic activity, output class 1 if it is greater than or equal to 0.9 and class 0 if not.

Threshold query (relative enzymatic activity >= 0.9) on "Oc1cc(Cl)ccc1Oc1ccc(Cl)cc1Cl"
class 1

# iterate: "Cc1nc2c(=O)n(C)c(=O)nc-2n(C)n1"
class 1

# iterate: "O=[N+]([O-])c1ccc(N(CCO)CCO)c2c1no[n+]2[O-]"
class 1

# iterate: "CN1C(=O)[C@]23CC4=CC=C[C@H](O)[C@H]4N2C(=O)[C@@]1(CO)SS3"
class 0

# iterate: "CCCCCCCCCCCCCCCC[n+]1ccccc1"
class 0

# iterate: "[O-][n+]1ccccc1[S][Zn][S]c1cccc[n+]1[O-]"
class 1

# iterate: "COP(=S)(OC)Oc1cc(Cl)c(Cl)cc1Cl"
class 1

---

TARGET DESC: GlmU (UniProt A7ZTU1)
Sequence (A7ZTU1 whole entry, looked up): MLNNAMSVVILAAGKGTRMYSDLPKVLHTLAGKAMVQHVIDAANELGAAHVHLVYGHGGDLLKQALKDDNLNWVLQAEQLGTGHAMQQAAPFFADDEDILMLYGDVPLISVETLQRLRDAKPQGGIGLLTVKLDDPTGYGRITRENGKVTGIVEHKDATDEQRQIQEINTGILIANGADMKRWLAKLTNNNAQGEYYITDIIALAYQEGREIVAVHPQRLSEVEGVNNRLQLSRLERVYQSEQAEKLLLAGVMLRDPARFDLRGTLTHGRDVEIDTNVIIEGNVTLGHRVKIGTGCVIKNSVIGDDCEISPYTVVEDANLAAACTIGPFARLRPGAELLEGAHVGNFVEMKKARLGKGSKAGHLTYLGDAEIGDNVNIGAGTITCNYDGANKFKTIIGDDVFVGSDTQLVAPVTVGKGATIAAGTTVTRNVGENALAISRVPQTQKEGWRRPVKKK
EXPERIMENT SUMMARY: relative enzymatic activity vs untreated control (fraction); higher = less inhibition
TEST CONTEXT: 100 µM; incubation time: 2 h at 37 C
Given measured relative enzymatic activity, output 1 (yes) if it is greater than or equal to 0.9 and 0 (no) if not.

Threshold query (relative enzymatic activity >= 0.9) on "[O-][n+]1ccccc1[S][Zn][S]c1cccc[n+]1[O-]"
1 (yes)

# iterate: "CCCCCCCCCCCCCCCC[n+]1ccccc1.[Cl-]"
0 (no)

# iterate: "Cc1nc2c(=O)n(C)c(=O)nc-2n(C)n1"
1 (yes)

# iterate: "O=[N+]([O-])C(Br)(CO)CO"
0 (no)

# iterate: "CCCCCCCCCCCCCCCC[n+]1ccccc1"
0 (no)

# iterate: "Cc1c(N)nc([C@H](CC(N)=O)NC[C@@H](N)C(N)=O)nc1C(=O)N[C@H](C(=O)N[C@@H](C)[C@H](O)[C@@H](C)C(=O)N[C@@H](C(=O)NCCc1nc(-c2nc(C(=O)NCCC[S+](C)C)cs2)cs1)[C@@H](C)O)[C@@H](O[C@H]1O[C@H](CO)[C@H](O)[C@@H](O)[C@H]1O[C@H]1O[C@H](CO)[C@@H](O)[C@H](OC(N)=O)[C@@H]1O)c1cnc[nH]1"
1 (yes)

# iterate: "O=S(=O)(O)O.Oc1cccc2cccnc12"
1 (yes)

# iterate: "CN(C)[C@@H]1C(=O)C(C(N)=O)=C(O)[C@@]2(O)C(O)=C3C(=O)c4c(O)cccc4[C@](C)(O)[C@H]3C[C@@H]12"
1 (yes)

# iterate: "O=[N+]([O-])c1ccc(N(CCO)CCO)c2c1no[n+]2[O-]"
1 (yes)

# iterate: "COP(=S)(OC)Oc1cc(Cl)c(Cl)cc1Cl"
1 (yes)

# iterate: "Cn1ncnc2c(=O)n(C)c(=O)nc1-2"
1 (yes)

# iterate: "C[CH2][Hg][S]c1ccccc1C(=O)[O-].[Na+]"
1 (yes)

# iterate: O=C1C=C2C(=CCOC2O)O1 (centres undefined)
0 (no)

# iterate: "CC(=O)[O][Hg][c]1ccccc1"
1 (yes)

---

TARGET DESC: MurD (UniProt P14900)
Sequence (P14900 whole entry): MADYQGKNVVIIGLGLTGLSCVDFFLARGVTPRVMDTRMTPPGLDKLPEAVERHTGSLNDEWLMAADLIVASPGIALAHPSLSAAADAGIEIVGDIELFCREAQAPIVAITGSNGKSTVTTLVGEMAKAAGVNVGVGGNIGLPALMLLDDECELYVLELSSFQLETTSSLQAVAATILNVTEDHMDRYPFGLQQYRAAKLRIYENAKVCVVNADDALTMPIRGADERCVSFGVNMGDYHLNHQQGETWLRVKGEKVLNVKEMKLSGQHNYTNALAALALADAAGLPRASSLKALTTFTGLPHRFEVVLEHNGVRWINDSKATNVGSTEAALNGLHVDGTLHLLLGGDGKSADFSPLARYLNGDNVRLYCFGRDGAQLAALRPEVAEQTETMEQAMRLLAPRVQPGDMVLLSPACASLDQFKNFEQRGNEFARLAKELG
EXPERIMENT SUMMARY: relative enzymatic activity vs untreated control (fraction); higher = less inhibition
TEST CONTEXT: 100 µM; incubation time: 2 h at 37 C
Ranges used to classify relative enzymatic activity: band A = under 0.2, band B = from 0.2 up to 0.6, band C = 0.6 and over

Could you tell me which band "Cc1c(N)nc([C@H](CC(N)=O)NC[C@@H](N)C(N)=O)nc1C(=O)N[C@H](C(=O)N[C@@H](C)[C@H](O)[C@@H](C)C(=O)N[C@@H](C(=O)NCCc1nc(-c2nc(C(=O)NCCC[S+](C)C)cs2)cs1)[C@@H](C)O)[C@@H](O[C@H]1O[C@H](CO)[C@H](O)[C@@H](O)[C@H]1O[C@H]1O[C@H](CO)[C@@H](O)[C@H](OC(N)=O)[C@@H]1O)c1c[nH]cn1" belongs to?
band C

# iterate: "CCCCCCCCCCCCCCCC[n+]1ccccc1.[Cl-]"
band A

# iterate: "COP(=S)(OC)Oc1cc(Cl)c(Cl)cc1Cl"
band C

# iterate: "CC(=O)[O][Hg][c]1ccccc1"
band B

# iterate: "O=S(=O)(O)O.Oc1cccc2cccnc12"
band B

# iterate: "CCCCCCCCCCCCCCCC[n+]1ccccc1"
band A

---

I'd be grateful if you could share measured relative enzymatic activity for these entries.
Test system: RNA polymerase
EXPERIMENT SUMMARY: relative enzymatic activity vs untreated control (fraction); higher = less inhibition
TEST CONTEXT: 100 µM; incubation time: 2 h at 37 C
Write the value as a bare number.

What value of relative enzymatic activity has been reported for the following molecule? "Cc1nc2c(=O)n(C)c(=O)nc-2n(C)n1"
0.925

# iterate: "Oc1cc(Cl)ccc1Oc1ccc(Cl)cc1Cl"
0.935

# iterate: "Cc1c(N)nc([C@H](CC(N)=O)NC[C@@H](N)C(N)=O)nc1C(=O)N[C@H](C(=O)N[C@@H](C)[C@H](O)[C@@H](C)C(=O)N[C@@H](C(=O)NCCc1nc(-c2nc(C(=O)NCCC[S+](C)C)cs2)cs1)[C@@H](C)O)[C@@H](O[C@H]1O[C@H](CO)[C@H](O)[C@@H](O)[C@H]1O[C@H]1O[C@H](CO)[C@@H](O)[C@H](OC(N)=O)[C@@H]1O)c1c[nH]cn1"
0.866

# iterate: "CCn1cc(C(=O)[O-])c(=O)c2cc3c(cc21)OCO3.[K+]"
0.783

# iterate: "O=S(=O)(O)O.Oc1cccc2cccnc12"
0.862

# iterate: "CC(=O)Oc1ccc(Cl)c2cccnc12"
0.74

---

TARGET DESC: DNA polymerase (UniProt P10443)
Sequence (P10443 whole entry): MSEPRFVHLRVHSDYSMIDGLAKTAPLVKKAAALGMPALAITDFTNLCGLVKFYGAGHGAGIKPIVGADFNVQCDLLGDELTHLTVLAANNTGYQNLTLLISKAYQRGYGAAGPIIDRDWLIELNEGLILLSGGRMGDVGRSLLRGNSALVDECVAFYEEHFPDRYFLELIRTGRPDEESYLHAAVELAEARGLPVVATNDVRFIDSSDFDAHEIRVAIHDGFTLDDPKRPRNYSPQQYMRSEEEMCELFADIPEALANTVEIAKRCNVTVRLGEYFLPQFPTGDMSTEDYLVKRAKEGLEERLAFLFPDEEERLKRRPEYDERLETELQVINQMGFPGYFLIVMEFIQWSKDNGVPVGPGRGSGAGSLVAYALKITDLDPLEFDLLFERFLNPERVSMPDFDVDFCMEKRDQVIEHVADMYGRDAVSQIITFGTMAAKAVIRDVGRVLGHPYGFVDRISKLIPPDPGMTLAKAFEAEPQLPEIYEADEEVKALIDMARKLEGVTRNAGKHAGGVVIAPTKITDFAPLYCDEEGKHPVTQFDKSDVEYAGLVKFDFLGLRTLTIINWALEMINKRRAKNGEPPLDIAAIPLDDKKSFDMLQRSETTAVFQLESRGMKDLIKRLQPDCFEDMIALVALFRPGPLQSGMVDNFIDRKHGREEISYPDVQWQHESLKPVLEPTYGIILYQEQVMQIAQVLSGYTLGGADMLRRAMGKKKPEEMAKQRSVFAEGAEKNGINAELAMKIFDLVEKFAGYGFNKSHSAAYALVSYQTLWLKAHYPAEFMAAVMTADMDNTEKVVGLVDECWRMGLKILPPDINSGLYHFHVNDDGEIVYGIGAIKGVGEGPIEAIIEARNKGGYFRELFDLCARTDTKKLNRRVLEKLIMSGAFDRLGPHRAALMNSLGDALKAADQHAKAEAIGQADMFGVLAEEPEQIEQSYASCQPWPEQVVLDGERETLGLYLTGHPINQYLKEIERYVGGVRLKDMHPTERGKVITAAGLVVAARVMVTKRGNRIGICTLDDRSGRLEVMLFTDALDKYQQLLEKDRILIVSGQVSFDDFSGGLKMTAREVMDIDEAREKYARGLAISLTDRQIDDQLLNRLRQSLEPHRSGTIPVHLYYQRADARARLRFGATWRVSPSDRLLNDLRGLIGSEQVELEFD
EXPERIMENT SUMMARY: relative enzymatic activity vs untreated control (fraction); higher = less inhibition
TEST CONTEXT: 100 µM; incubation time: 2 h at 37 C
OUTCOME MEASURE: relative enzymatic activity
Write the value as a bare number.

What value of relative enzymatic activity has been reported for the following compound? "O=S(=O)(O)O.Oc1cccc2cccnc12"
1.34

# iterate: "CC(=O)[O][Hg][c]1ccccc1"
0.285

# iterate: "CN(C)[C@@H]1C(=O)[C@H](C(N)=O)C(=O)[C@@]2(O)C(=O)[C@@H]3C(=O)c4c(O)cccc4[C@@](C)(O)[C@H]3C[C@@H]12"
0.874

# iterate: "CCCCCCCCCCCCCCCC[n+]1ccccc1"
0.0267

---

I'd be grateful if you could share measured relative enzymatic activity for these entries.
TARGET DESC: DNA primase (UniProt P0ABS7)
Sequence (P0ABS7 whole entry): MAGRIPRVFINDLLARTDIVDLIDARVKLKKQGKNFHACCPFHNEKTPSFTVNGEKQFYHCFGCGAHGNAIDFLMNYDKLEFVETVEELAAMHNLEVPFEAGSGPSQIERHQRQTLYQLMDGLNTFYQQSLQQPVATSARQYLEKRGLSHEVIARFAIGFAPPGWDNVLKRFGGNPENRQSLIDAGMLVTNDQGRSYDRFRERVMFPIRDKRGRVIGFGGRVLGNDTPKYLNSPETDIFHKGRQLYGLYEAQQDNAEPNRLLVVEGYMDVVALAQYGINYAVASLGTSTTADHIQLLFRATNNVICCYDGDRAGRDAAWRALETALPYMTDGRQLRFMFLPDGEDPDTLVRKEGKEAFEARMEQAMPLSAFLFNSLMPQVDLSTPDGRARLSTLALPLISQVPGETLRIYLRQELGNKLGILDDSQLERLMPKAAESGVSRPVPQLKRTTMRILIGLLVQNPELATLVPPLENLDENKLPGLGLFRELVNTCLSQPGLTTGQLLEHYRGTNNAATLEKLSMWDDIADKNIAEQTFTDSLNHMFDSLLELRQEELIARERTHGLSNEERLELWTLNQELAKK
EXPERIMENT SUMMARY: relative enzymatic activity vs untreated control (fraction); higher = less inhibition
TEST CONTEXT: 100 µM; incubation time: 2 h at 37 C
Write the value as a bare number.

What value of relative enzymatic activity has been reported for the following compound? "CN(C)[C@@H]1C(=O)[C@H](C(N)=O)C(=O)[C@@]2(O)C(=O)[C@@H]3C(=O)c4c(O)cccc4[C@@](C)(O)[C@H]3C[C@@H]12"
0.801

# iterate: "Cc1c(N)nc([C@H](CC(N)=O)NC[C@@H](N)C(N)=O)nc1C(=O)N[C@H](C(=O)N[C@@H](C)[C@H](O)[C@@H](C)C(=O)N[C@@H](C(=O)NCCc1nc(-c2nc(C(=O)NCCC[S+](C)C)cs2)cs1)[C@@H](C)O)[C@@H](O[C@H]1O[C@H](CO)[C@H](O)[C@@H](O)[C@H]1O[C@H]1O[C@H](CO)[C@@H](O)[C@H](OC(N)=O)[C@@H]1O)c1cnc[nH]1"
0.801

# iterate: "CC(=O)[O][Hg][c]1ccccc1"
0.749

# iterate: O=C1C=C2C(=CCOC2O)O1 (stereo not given)
0.632

# iterate: "O=[N+]([O-])c1ccc(N(CCO)CCO)c2c1no[n+]2[O-]"
0.559

# iterate: "CN[C@H]1C[C@@H](N)[C@H](O)[C@@H](O[C@@H]2O[C@H](CO)[C@H](O)[C@@H]3O[C@@]4(O[C@H]23)O[C@H]([C@@H](N)CO)[C@H](O)[C@H](O)[C@H]4O)[C@@H]1O"
0.883

# iterate: "CN(C)[C@@H]1C(=O)[C@@H](C(N)=O)C(=O)[C@@]2(O)C(=O)[C@H]3C(=O)c4c(O)ccc(Cl)c4[C@@](C)(O)[C@H]3C[C@@H]12"
0.778

# iterate: CNC1C(O)C(OC2C(N)CC(N)C(OC3OC(C(C)O)C(O)C(O)C3N)C2O)OCC1(C)O (stereo not given)
0.749

# iterate: "CN1C(=O)[C@]23CC4=CC=C[C@H](O)[C@H]4N2C(=O)[C@@]1(CO)SS3"
0.859

# iterate: "COP(=S)(OC)Oc1cc(Cl)c(Cl)cc1Cl"
0.737
